Each item that follows carries a reported cytotoxicity at 70.5 h.
- Method: Human HepG2 cell viability assay in 384 well format
- Assay type: toxicity, cell-based
- Parameters: dose 125 nL, time 70.5 hour; concentration not given beside the values
- Experimental parameters: HepG2 cells, read-out: Inhibition
Quantity kind: cytotoxicity at 70.5 h (%)

[[record]]
molecule = "COc1ccc(-c2noc(C(N)CCSC)n2)cc1OC (stereo unspecified)"
units_symbol = "%"
quantitative_readout = -3.12

[[record]]
molecule = "c1ccc(CCCN2CCCC2Cn2cncn2)cc1 (stereo unspecified)"
units_symbol = "%"
quantitative_readout = -3.86

[[record]]
molecule = "COc1ccc(-c2cc3nc(CCNC(=O)CN(C)C)nn3cn2)cc1"
units_symbol = "%"
quantitative_readout = -1.8

[[record]]
molecule = "Cc1cnc(CNC(=O)N(Cc2ccccc2)CC(C)(C)O)s1"
units_symbol = "%"
quantitative_readout = -3.13

[[record]]
molecule = "C[C@@H]1CN(C(=O)c2c[nH]c(=O)c(Cl)c2)CC[C@@]1(O)C1CCOCC1"
units_symbol = "%"
quantitative_readout = -1.04

[[record]]
molecule = "Cc1ncc(C(=O)N2CCC(N3CCc4ccccc4C3)CC2)c(O)n1"
units_symbol = "%"
quantitative_readout = 2.23

[[record]]
molecule = "CC(C)[C@H]1CN(Cc2nccn2C)C[C@@H]1NC(=O)CCS(C)(=O)=O"
units_symbol = "%"
quantitative_readout = -5.68

[[record]]
molecule = "CCCN(C(=O)CN1CCN(CC(C)O)CC1)C1=CCCCC1 (stereo unspecified)"
units_symbol = "%"
quantitative_readout = 35.9

[[record]]
molecule = "Cc1nn(C)c(C)c1CCC(=O)N1CCN(CCn2cncn2)CC1"
units_symbol = "%"
quantitative_readout = 14.9

[[record]]
molecule = "CSc1nc(N)c2c(n1)N=C1COC(O)=C1C2c1cccc(O)c1 (stereo unspecified)"
units_symbol = "%"
quantitative_readout = 0.964

[[record]]
molecule = "Cc1nn(C)c(Cl)c1CNCc1cccnc1N1CCCCC1"
units_symbol = "%"
quantitative_readout = -2.26

